The origin of these recorded values is ChEMBL document CHEMBL5665443.

Target: Methyl-CpG-binding domain protein 4 (Homo sapiens);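 note: MBD4 activity read as fluorescence at 594 nm from cleavage and release of a quenched duplex DNA oligonucleotide, with APE1 coupled to incise the strand and raise turnover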
Conditions: Compound Concentration 1.0 uM, Hit No
Description: Inhibition of MBD4 by quantifying inhibition of MBD4-mediated cleavage and dissociation of quenched duplex DNA oligonucleotides, measured as fluorescence at 594 nm. To generate a functional strand incision and increase turn-over this assay is coupled to APE1.
measure: inhibition (%)
Give a bare numeral; the unit % is implied.

Examples with answers:
CN(C)C(=O)/C(C#N)=C/c1ccc(-c2nc3cnc4c(ccn4C)c3n2C2CCCCC2)o1 = 95
O=C(Cc1ccccc1)Nc1nnc(N2C[C@H]3C[C@@H]2CN3c2cccnn2)s1 = 62
COCCOc1nc(-c2ccc(Cl)nc2)nc2c1CN(C(=O)c1ncn3ccccc13)CC2 = 67.8
Cc1cnc(Nc2ccc(F)cc2Cl)nc1-c1c[nH]c(C(=O)N[C@H](CO)c2cccc(Cl)c2)c1 = -4.19

Alright, here's another molecule for you.
QUERY: Could you share which inhibition value was measured for Cc1nc(Cc2cccc(C(F)(F)F)c2)sc1-c1ccc(C(N)=O)nc1 ?
RESULT: 52

----------
Target: G/T mismatch-specific thymine DNA glycosylase (Homo sapiens) (UniProt Q13569)
Sequence (Q13569 whole entry): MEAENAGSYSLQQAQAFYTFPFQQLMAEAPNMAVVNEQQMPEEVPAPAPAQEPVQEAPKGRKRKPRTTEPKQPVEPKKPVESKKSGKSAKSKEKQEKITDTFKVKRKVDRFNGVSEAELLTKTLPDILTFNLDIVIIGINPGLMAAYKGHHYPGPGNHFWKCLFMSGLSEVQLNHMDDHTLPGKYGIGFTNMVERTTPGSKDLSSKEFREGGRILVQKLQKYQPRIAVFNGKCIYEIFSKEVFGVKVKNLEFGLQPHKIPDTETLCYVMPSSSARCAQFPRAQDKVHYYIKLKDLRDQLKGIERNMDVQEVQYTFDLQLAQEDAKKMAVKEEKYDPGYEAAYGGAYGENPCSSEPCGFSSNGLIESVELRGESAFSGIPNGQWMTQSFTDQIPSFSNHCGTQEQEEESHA
Settings: Compound Concentration 1.0 uM, Hit No
Description: Inhibition of TDG by quantifying inhibition of TDG-mediated cleavage and dissociation of quenched duplex DNA oligonucleotides, measured as fluorescence at 594 nm. To generate a functional strand incision and increase turn-over this assay is coupled to APE1.
Label true when inhibition is at or above 50%; otherwise label false.

Nc1ncc2c(n1)-c1c([nH]c3ccc(C4CC4)cc13)CCCC2 = false
CNC(=O)Nc1ccc2c(c1)CC[C@@]21OC(=O)N(CC(=O)N(Cc2ccc(F)cc2)[C@@H](C)C(F)(F)F)C1=O = true
O=C(NOCC1CC1)c1ccc(F)c(F)c1Nc1ccc(I)cc1Cl = true
CNC(=O)Nc1ccc2c(c1)[C@@]1(CC2)OC(=O)N(CC(=O)N(Cc2ccc(F)cc2)[C@@H](C)C(F)(F)F)C1=O = true
CN1CCN(C(=O)C(C)(C)c2ccc(C(=O)Nc3cn4cc(-c5ccncc5)ccc4n3)cc2)CC1 = false

// next entry
QUERY: Kindly determine if inhibition recorded for Cc1ccc(-c2cnc([C@@]3(O)CC[C@H](C(=O)O)C(C)(C)C3)s2)cc1Nc1cccc(C(F)(F)F)n1 is above or exactly 50%.
RESULT: false

----------
Biological target: Endonuclease 8-like 2 (Homo sapiens) (UniProt Q969S2)
Sequence (Q969S2 whole entry): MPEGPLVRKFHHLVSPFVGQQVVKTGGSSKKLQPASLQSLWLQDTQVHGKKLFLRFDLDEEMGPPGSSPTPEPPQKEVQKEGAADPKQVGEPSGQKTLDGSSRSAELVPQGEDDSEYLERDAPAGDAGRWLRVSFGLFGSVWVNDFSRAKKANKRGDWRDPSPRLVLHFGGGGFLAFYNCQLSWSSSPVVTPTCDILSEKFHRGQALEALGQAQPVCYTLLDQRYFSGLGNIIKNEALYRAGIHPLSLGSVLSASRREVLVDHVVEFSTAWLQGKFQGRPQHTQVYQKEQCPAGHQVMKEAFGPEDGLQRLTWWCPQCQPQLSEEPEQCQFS
Conditions: Compound Concentration 10.0 uM, Hit No
Description: Inhibition of NEIL2 by quantifying inhibition of NEIL2-mediated cleavage and dissociation of quenched duplex DNA oligonucleotides, measured as fluorescence at 594 nm.
measure: inhibition
Hey, just the number and the unit after it is fine.

N#Cc1c(O)nc(SCc2cccc(F)c2F)nc1C1CC1 = 6.5%

Alright, here's another compound for you.
QUERY: Given the entry Cc1c(C(=O)NN2CCCCC2)nn(-c2ccc(Cl)cc2Cl)c1-c1ccc(Cl)cc1 , what inhibition was observed with Endonuclease 8-like 2 (Homo sapiens) (UniProt Q969S2)?
RESULT: 0.764%

----------
Recorded measurements of inhibition, one per entry
Biological target: Endonuclease 8-like 1 (Homo sapiens) (UniProt Q96FI4);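 note: fluorescence at 594 nm from quenched duplex DNA oligonucleotides released by NEIL1 cleavage and strand separation, reported as reduction of this enzyme activity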
Sequence (Q96FI4 whole entry): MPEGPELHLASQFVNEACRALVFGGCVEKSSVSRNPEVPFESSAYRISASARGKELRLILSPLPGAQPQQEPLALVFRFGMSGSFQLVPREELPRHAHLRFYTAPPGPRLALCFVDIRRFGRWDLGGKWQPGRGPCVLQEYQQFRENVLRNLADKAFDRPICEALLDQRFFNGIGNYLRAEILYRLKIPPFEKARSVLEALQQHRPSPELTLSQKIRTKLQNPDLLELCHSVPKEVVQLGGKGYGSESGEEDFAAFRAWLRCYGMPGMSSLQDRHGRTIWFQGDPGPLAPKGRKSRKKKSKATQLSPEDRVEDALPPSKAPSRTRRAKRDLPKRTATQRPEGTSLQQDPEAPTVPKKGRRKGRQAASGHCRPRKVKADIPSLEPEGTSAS
Conditions: Compound Concentration 10.0 uM, Hit No
Description: Inhibition of NEIL1 by quantifying inhibition of NEIL1-mediated cleavage and dissociation of quenched duplex DNA oligonucleotides, measured as fluorescence at 594 nm.
Give a bare numeral; the unit % is implied.

COC[C@H](O)Cn1c(=O)cnn(-c2ccc(Cl)c(C(=O)NCC3(O)CCCCCC3)c2)c1=O = 1.64

QUERY: Could you share which inhibition value was measured for C=C1/C(=C\C=C2/CCC[C@]3(C)[C@@H]([C@H](C)/C=C/C=C/C(O)(CC)CC)CC[C@@H]23)C[C@@H](O)C[C@@H]1O ?
RESULT: 0.77

QUERY: Could you share which inhibition value was measured for Nc1nc2c(c(N3CCNCC3)n1)CCC1=C2[C@@H]2CCCC[C@@H]2O1 ?
RESULT: -3.91

QUERY: Could you share which inhibition value was measured for O=C1O[C@]2(CC[C@H](C(=O)Nc3ccn(-c4ccccc4F)n3)CC2)c2cnccc21 ?
RESULT: -8.51

QUERY: Could you share which inhibition value was measured for CC(C)N(CCCCOCC(=O)NS(C)(=O)=O)c1cnc(-c2ccccc2)c(-c2ccccc2)n1 ?
RESULT: 9.29

QUERY: Could you share which inhibition value was measured for CN(C(=O)c1cnn2cccnc12)c1cc2c(cc1N1CCOCC1)C(=O)N(C[C@@H](F)C(C)(C)O)C2 ?
RESULT: 6.13

QUERY: Could you share which inhibition value was measured for N#Cc1cccc(-c2nc(-c3cccnc3)no2)c1 ?
RESULT: 2.53

QUERY: Could you share which inhibition value was measured for CCOc1cc(N2CCC(O)CC2)ccc1Nc1ncc2c(n1)N(C)c1ccccc1C(=O)N2C ?
RESULT: -3.56

QUERY: Could you share which inhibition value was measured for CN1CCC(=C2c3ccccc3CC(=O)c3sccc32)CC1 ?
RESULT: 8.25

QUERY: Could you share which inhibition value was measured for NC(=O)NN=Cc1ccc(Oc2ccc(F)cc2)cc1 ?
RESULT: 9.49

QUERY: Could you share which inhibition value was measured for O=C(NCC(=O)N1CC[C@H](N[C@H]2CC[C@@](O)(c3ccc(-c4ncccn4)cn3)CC2)C1)c1cccc(C(F)(F)F)c1 ?
RESULT: 2.76

----------
Biological target: G/T mismatch-specific thymine DNA glycosylase (Homo sapiens) (UniProt Q13569);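 note: human TDG cleavage of quenched duplex DNA oligonucleotides coupled to APE1, strand release read as fluorescence at 594 nm, inhibition of TDG activity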
Details: Compound Concentration 10.0 uM, Hit No
Recorded measurements of inhibition, one per entry
Give a bare numeral; the unit % is implied.

Examples with answers:
O=C(O)Cc1cc(I)c(Oc2ccc(O)c(I)c2)c(I)c1 = 40.4
N[C@@H](Cc1cc(I)c(Oc2ccc(O)c(I)c2)c(I)c1)C(=O)O = 102
C/N=C(/NC#N)NCCSCc1csc(NC(=N)N)n1 = 1.2
CCCCCCCCCCCCCCC[C@@H](O)[C@@H](N)COP(=O)(O)O = 3
CCOc1ccccc1C(=O)NCC1(N2CCN(CC)CC2)CCCCC1 = 5.23
CCOC(=O)C1Cc2ccccc2CN1C(=O)c1ccc(SC)s1 (stereo not drawn) = 98.9

QUERY: Given the entry Nc1nc(NCCc2ccc(O)cc2)nc2nc(-c3ccco3)nn12 , what inhibition was observed with G/T mismatch-specific thymine DNA glycosylase (Homo sapiens) (UniProt Q13569)?
RESULT: -0.119

QUERY: Given the entry CC(=O)Nc1c(F)cc(C(=O)N[C@H]2CC[C@H](O)CC2)cc1O[C@@H](C)c1ccccc1 , what inhibition was observed with G/T mismatch-specific thymine DNA glycosylase (Homo sapiens) (UniProt Q13569)?
RESULT: 69.8

QUERY: Given the entry COc1ccc2[nH]cc(CCNC(C)=O)c2c1 , what inhibition was observed with G/T mismatch-specific thymine DNA glycosylase (Homo sapiens) (UniProt Q13569)?
RESULT: 5.88

QUERY: Given the entry CC1=C(C#N)C(c2ccc3c(c2)c(NC(=O)c2ccccc2C)nn3C)C(C#N)=C(C)N1 , what inhibition was observed with G/T mismatch-specific thymine DNA glycosylase (Homo sapiens) (UniProt Q13569)?
RESULT: 58.9

QUERY: Given the entry CC(C)C(=O)Nc1n[nH]c2cc(-c3cccc(NS(=O)(=O)C4CC4)c3)ccc12 , what inhibition was observed with G/T mismatch-specific thymine DNA glycosylase (Homo sapiens) (UniProt Q13569)?
RESULT: 40.3

QUERY: Given the entry Cc1ccccc1-c1cc(N2CCN(C)CC2)ncc1N(C)C(=O)C(C)(C)c1cc(C(F)(F)F)cc(C(F)(F)F)c1 , what inhibition was observed with G/T mismatch-specific thymine DNA glycosylase (Homo sapiens) (UniProt Q13569)?
RESULT: -5.37

QUERY: Given the entry CC#C[C@@H](CC(=O)O)c1ccc(OCc2cccc(-c3ccc(C(F)(F)F)cc3)c2)cc1 , what inhibition was observed with G/T mismatch-specific thymine DNA glycosylase (Homo sapiens) (UniProt Q13569)?
RESULT: 41.7

QUERY: Given the entry CO[C@H]1CC=C2CCN3CCC4=C(CC(=O)OC4)[C@]23C1 , what inhibition was observed with G/T mismatch-specific thymine DNA glycosylase (Homo sapiens) (UniProt Q13569)?
RESULT: -1.81

QUERY: Given the entry CCO[C@@H](Cc1ccc(OCCc2ccc(OS(C)(=O)=O)cc2)cc1)C(=O)O , what inhibition was observed with G/T mismatch-specific thymine DNA glycosylase (Homo sapiens) (UniProt Q13569)?
RESULT: 43.6

QUERY: Given the entry COc1ccc(OC)c(-c2ccc(NC(=O)c3ccncc3F)cc2)c1 , what inhibition was observed with G/T mismatch-specific thymine DNA glycosylase (Homo sapiens) (UniProt Q13569)?
RESULT: 15.8

----------
Target: Endonuclease 8-like 2 (Homo sapiens);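 note: fluorescence at 594 nm reports NEIL2 cutting and release of a quenched double-stranded DNA oligo substrate, reduced signal read as inhibition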
Details: Compound Concentration 10.0 uM, Hit No
Recorded measurements of inhibition, one per entry
Give a bare numeral; the unit % is implied.

Examples with answers:
COc1cc(NC(=O)c2ccc(-c3ccc(Cl)cc3)o2)cc(OC)c1 = -9.78
CC[C@H](CC(=O)O)n1c(=O)c2ncccc2n(Cc2cn(C)c3cc(C)cc(C)c23)c1=O = -5.34
C[C@H](NC(=O)[C@H](Cc1ccccc1)NC(=O)[C@H](CCC(N)=O)NC(=O)CNC(=O)[C@@H]1CCCN1C(=O)[C@H](Cc1ccccc1)NC(=O)[C@@H](N)Cc1ccc(O)cc1)C(=O)N[C@@H](Cc1ccccc1)C(=O)N[C@@H](CO)C(=O)O = 2.96

QUERY: Given the entry COc1ccc(Cl)cc1[C@]1(F)C(=O)Nc2cc(C(F)(F)F)ccc21 , what inhibition was observed with Endonuclease 8-like 2 (Homo sapiens)?
RESULT: 17

QUERY: Given the entry CC(=O)N1CCC(c2ccc(C(=O)NC(=N)N)cc2C(F)(F)F)CC1 , what inhibition was observed with Endonuclease 8-like 2 (Homo sapiens)?
RESULT: -0.744

QUERY: Given the entry CCOC(=O)c1ccc(CN(Cc2ccc(-c3cccc(S(C)(=O)=O)c3)cc2)S(=O)(=O)c2c(C)cc(C)cc2C)o1 , what inhibition was observed with Endonuclease 8-like 2 (Homo sapiens)?
RESULT: -7.63
